system_tested: ORF1p WT (Homo sapiens, UniProt Q9UN81 1-338)
Sequence (Q9UN81 other isoform, or with tags, fused parts or gaps): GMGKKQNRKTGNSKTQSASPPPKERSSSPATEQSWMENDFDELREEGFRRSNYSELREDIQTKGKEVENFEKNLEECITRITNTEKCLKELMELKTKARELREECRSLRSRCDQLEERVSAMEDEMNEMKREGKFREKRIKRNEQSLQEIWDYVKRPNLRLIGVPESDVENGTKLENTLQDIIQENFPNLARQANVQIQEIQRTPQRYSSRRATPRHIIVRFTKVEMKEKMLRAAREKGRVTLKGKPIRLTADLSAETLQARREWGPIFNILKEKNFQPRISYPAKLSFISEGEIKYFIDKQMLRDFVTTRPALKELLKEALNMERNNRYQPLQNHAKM
test_description: fluorescence anisotropy; 50 mM KCl; 20 mM Hepes pH 7.5, 50 mM KCl (150 or 300 mM in Fig. S1D rows), 1 mM MgCl2, 1 mM DTT; 1 nM 6-FAM oligo; temperature not stated
condition_info: protein: recombinant; tags: tag removed, N-terminal G left; chain copies: 3; label: 5' 6-FAM on RNA; blunt
pKd: −log10 of the molar value.
observable: pKd

{"binder": "30 bp RNA/DNA hybrid (DNA:RNA) RNA: ACCAUCAUCAAAGACCAAAAGUAGAUAAAA DNA: TTTTATCTACTTTTGGTCTTTGATGATGGT", "observable": "pKd", "observed_value": 8.33}
